- System: PPARg homodimer (NR concentration 180 nM)
- assay.overview: PBM binding z-score (relative to random genomic background probes); higher = stronger binding; sequences stand for … in GC…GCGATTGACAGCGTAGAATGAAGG
Please note: satisfied applies when PBM binding z-score is 1 or greater, and not satisfied applies otherwise.

Task item: I'd appreciate it if you could say whether "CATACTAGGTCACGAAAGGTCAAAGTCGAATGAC" has PBM binding z-score at least equal to 1.
Reply: satisfied

Task item: Same again, this time with "CGTCCAAGGTCAAAGGTCAGTGCAGAGATGACGG"
Reply: satisfied

Task item: Same again, this time with "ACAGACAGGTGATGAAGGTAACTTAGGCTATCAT"
Reply: not satisfied

Task item: Next sequence: "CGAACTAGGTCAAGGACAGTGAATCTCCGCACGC"
Reply: satisfied

Task item: Entry "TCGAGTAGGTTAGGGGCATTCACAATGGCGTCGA" please
Reply: not satisfied

Task item: "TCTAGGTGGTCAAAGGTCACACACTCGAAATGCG" ?
Reply: satisfied

Task item: Also, "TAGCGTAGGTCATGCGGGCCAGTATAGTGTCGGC" please.
Reply: not satisfied

Task item: Repeat with "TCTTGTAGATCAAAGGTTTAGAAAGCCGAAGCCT"
Reply: not satisfied

Task item: Now the same for "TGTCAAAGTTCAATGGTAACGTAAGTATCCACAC"
Reply: satisfied

Task item: Also need "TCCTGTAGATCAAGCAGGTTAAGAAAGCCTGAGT" , thanks.
Reply: not satisfied

Task item: Now try "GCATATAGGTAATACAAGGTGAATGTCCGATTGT" .
Reply: not satisfied

----------
For each of the sequences below, state its PBM binding z-score.
- Tested on: PPARg DBDmut:RXRa IVT, anti-PPARg (DBD mutation: PPARg1 K132A/R137A, NR concentration 270 nM, RXRa partner concentration 90 nM)
- assay.overview: PBM binding z-score (relative to random genomic background probes); higher = stronger binding; sequences stand for … in GC…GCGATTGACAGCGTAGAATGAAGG
Respond numerically, and do not add a unit to the figure.

Task item: # input sequence: "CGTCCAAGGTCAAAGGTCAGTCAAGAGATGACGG" ; wanted: its PBM binding z-score
Reply: 0.706

Task item: Next record, please: "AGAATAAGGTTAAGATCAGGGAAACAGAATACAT"
Reply: 1.42

Task item: Now give it for "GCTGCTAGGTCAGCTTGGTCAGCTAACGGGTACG" too.
Reply: -1.08

Task item: Quick one: "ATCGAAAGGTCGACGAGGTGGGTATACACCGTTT"
Reply: 0.733

Task item: What do you get for "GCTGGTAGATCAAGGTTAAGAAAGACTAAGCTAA" ?
Reply: -0.0433

Task item: Next up: "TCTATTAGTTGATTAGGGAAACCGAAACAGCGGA"
Reply: 0.834

Task item: And what about the sequence "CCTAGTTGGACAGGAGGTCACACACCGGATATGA" ?
Reply: 0.73

Task item: Similarly, "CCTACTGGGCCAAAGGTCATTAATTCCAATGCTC" ?
Reply: 0.543

Task item: Please answer likewise for "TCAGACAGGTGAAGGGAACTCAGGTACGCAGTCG"
Reply: -0.0761

Task item: Same lookup for "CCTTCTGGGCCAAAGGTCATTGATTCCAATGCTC" , please.
Reply: 0.508

Task item: Please do the same for "GGAACGAGCGCATTCGAGTTGATAGCATGGCGAT" as well.
Reply: -0.918

Task item: Next sequence: "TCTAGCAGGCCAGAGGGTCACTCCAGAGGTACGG"
Reply: -1.43

Task item: Same thing, different sequence: "AATACAGGGTCACTAGGCCAGAGCAGGTACGAAT"
Reply: 2.36

Task item: Follow-up item: "GTAGACAGGTGAAACGCAGGTAACTCAGGGTGGC"
Reply: -0.547

Task item: Subsequent entry: "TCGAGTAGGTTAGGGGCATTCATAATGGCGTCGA"
Reply: -0.476

Task item: Now this one: "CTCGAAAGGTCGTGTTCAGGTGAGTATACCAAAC"
Reply: 0.275

Task item: Field entry: "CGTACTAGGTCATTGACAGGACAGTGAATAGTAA"
Reply: 3.72

Task item: Ok, now "AATACAGGGTCATCGAAGGCCAGAGTACGCACAG"
Reply: 1.28

Task item: How about this sequence: "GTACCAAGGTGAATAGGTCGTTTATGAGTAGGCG"
Reply: 0.986

Task item: Another: "ATCTCTAGGTAACATGTTCAGTGAAAGAGAGGAC"
Reply: 1.47

Task item: Thanks! And "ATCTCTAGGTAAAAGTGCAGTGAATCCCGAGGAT" ?
Reply: 0.765

Task item: How about "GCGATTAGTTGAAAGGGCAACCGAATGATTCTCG" ?
Reply: -0.291

Task item: Now give it for "GAGACAGGGTCAAGGCCAGAGTACGCGTATTGAT" too.
Reply: 0.251

Task item: Same for "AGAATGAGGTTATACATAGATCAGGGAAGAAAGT"
Reply: 1.44

Task item: Could you do the same for "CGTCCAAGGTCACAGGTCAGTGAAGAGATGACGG" , please?
Reply: 0.709

Task item: // same read-out, input: "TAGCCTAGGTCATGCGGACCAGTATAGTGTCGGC"
Reply: -0.0719

Task item: Similarly, "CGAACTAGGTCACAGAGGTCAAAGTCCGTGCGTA" ?
Reply: 8.99

Task item: Can you handle "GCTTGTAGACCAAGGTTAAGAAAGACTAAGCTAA" next?
Reply: 0.464

Task item: And the next one, "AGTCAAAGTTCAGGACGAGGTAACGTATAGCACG" ?
Reply: 0.949

Task item: Also need "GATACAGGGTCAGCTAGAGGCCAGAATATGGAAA" , thanks.
Reply: -0.253

Task item: Could you do the same for "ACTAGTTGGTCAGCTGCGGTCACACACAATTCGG" , please?
Reply: 0.929

Task item: And then "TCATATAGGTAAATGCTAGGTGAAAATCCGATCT" , what is it?
Reply: 1.79

Task item: Please answer likewise for "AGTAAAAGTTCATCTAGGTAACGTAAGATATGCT"
Reply: 1.21

Task item: Then "GATACATGGTCAGCTAGAGGCCAGAGTATGGAAA" ?
Reply: -1.36

Task item: Please do the same for "CCAACTGGGCCATCAGGTCATTGATATCAACGTT" as well.
Reply: -0.74

Task item: Further, for "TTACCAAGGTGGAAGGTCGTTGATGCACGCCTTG" ?
Reply: -0.236

Task item: Likewise for "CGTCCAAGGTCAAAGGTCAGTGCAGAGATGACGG" ?
Reply: 1.33

Task item: Would you mind doing "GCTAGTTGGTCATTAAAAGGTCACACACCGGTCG" as well?
Reply: -0.134

Task item: Same read-out for "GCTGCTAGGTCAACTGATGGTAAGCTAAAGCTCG" ?
Reply: -0.843

Task item: How about this sequence: "TCTTGTAGATCAACAGGATGTTAAGAAAGATCGA"
Reply: 0.783

Task item: What do we get for "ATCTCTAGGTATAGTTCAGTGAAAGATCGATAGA" ?
Reply: 1.64

Task item: Try the sequence "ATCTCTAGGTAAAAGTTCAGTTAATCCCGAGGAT"
Reply: 1.85

Task item: What about this sequence? "ACTCGGAGGACAAAGGTCAGTGCTACGCCAGTGA"
Reply: 1.11

Task item: Also need "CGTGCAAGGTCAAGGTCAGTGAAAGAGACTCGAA" , thanks.
Reply: 1.6

Task item: Note, next up: "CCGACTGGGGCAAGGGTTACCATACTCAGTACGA"
Reply: -0.628

Task item: Now consider "GTACCAAGGTGATTAGGTCGTTGATGAGTAGGCG" .
Reply: 0.301

Task item: Query "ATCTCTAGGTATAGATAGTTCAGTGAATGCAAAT" next
Reply: 1.48

Task item: Now consider "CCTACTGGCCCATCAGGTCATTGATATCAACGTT" .
Reply: -0.917

Task item: Request: "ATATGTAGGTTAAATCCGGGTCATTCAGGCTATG"
Reply: 2.58

Task item: Record: "TAGACTAGGTCATGGGCCAGTATACCACGCGAAC"
Reply: 1.6

Task item: # repeat for "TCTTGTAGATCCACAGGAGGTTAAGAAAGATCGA"
Reply: 0.829
